- ASSAY_NAME: Apparent volume of distributed in Sprague-Dawley rat at 5 mg/kg, iv
- Format: ADME, organism-based
- CONDITION_DESCRIPTION: in vivo, read-out: Vz
MEASURE_NAME: Vd (L/kg)

structure_smiles_string=CC[C@@H]1CN2CCc3c([nH]c4cccc(OC)c34)[C@@H]2C[C@@H]1/C(=C\OC)C(=O)OC units=L/kg numeric_readout=8

---

molecules and their reported Activity
- STUDY_TARGET: UniProtKB P46098
- Sequence (P46098 whole entry): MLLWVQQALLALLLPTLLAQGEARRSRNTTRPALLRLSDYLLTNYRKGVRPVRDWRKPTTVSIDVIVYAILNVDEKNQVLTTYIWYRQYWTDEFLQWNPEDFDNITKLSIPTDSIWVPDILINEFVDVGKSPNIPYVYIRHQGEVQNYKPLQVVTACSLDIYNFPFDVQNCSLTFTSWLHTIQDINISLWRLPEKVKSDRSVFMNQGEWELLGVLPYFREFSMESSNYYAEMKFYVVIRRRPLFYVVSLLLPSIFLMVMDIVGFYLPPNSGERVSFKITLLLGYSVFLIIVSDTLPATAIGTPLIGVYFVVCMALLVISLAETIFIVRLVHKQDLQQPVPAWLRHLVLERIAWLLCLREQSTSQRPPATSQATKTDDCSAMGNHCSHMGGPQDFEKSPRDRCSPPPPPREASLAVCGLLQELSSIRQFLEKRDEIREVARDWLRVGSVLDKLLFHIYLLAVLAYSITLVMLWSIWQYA
- ASSAY_NAME: Displacement of [3H]BRL43694 from human recombinant 5-HT3 receptor expressed in CHO cells at 10 uM measured after 120 mins by radioligand completion assay relative to control
- Format: cell-based
MEASURE_NAME: Activity (%)

structure_smiles_string=CC[C@@H]1CN2CC[C@@]3(O)C(=Nc4cccc(OC)c43)[C@@H]2C[C@@H]1/C(=C\OC)C(=O)OC measure_name=Activity numeric_readout=19.5
structure_smiles_string=CC[C@@H]1CN2CCc3c([nH]c4cccc(OC)c34)[C@H]2C[C@@H]1/C(=C\OC)C(=O)OC measure_name=Activity numeric_readout=0.7
structure_smiles_string=COC(=O)C1=COC[C@H]2CN3CCc4c([nH]c5ccccc45)[C@@H]3C[C@H]12 measure_name=Activity numeric_readout=1.8
structure_smiles_string=CC[C@H]1CN2CCc3c([nH]c4cccc(OC)c34)[C@@H]2C[C@@H]1/C(=C\OC)C(=O)OC measure_name=Activity numeric_readout=1.5
structure_smiles_string=CC[C@@H]1CN2CCc3c([nH]c4cccc(OC)c34)[C@@H]2C[C@@H]1/C(=C\OC)C(=O)OC measure_name=Activity numeric_readout=-12.7

---

- STUDY_TARGET: 5-hydroxytryptamine receptor 1A (Homo sapiens) (UniProt P08908)
- Sequence (P08908 whole entry): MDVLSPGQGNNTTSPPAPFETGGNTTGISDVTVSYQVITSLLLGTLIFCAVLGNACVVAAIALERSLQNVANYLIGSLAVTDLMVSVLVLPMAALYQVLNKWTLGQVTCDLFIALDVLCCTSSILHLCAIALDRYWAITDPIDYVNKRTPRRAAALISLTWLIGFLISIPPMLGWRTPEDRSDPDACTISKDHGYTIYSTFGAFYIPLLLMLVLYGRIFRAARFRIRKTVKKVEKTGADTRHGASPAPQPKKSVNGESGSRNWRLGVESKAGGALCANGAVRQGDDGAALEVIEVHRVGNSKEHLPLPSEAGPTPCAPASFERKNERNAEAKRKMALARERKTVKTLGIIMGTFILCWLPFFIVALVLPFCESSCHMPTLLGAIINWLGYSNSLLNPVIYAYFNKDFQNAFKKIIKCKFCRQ
- ASSAY_NAME: Displacement of [3H][…] from human recombinant 5-HT1A receptor expressed in cells at 100 nM measured after 60 to 90 mins by radioligand completion assay relative to control
- Format: cell-based
- CONDITION_DESCRIPTION: time 60-90 min
MEASURE_NAME: Activity (%)

structure_smiles_string=CC[C@@H]1CN2CCc3c([nH]c4cccc(OC)c34)[C@H]2C[C@@H]1/C(=C\OC)C(=O)OC measure_name=Activity numeric_readout=-4.8
structure_smiles_string=CC[C@@H]1CN2CC[C@@]3(O)C(=Nc4cccc(OC)c43)[C@@H]2C[C@@H]1/C(=C\OC)C(=O)OC measure_name=Activity numeric_readout=3.1
structure_smiles_string=COC(=O)C1=COC[C@H]2CN3CCc4c([nH]c5ccccc45)[C@@H]3C[C@H]12 measure_name=Activity numeric_readout=33.2
structure_smiles_string=CC[C@@H]1CN2CCc3c([nH]c4cccc(OC)c34)[C@@H]2C[C@@H]1/C(=C\OC)C(=O)OC measure_name=Activity numeric_readout=9.7

---

- STUDY_TARGET: 5-hydroxytryptamine receptor 1A (Homo sapiens, UniProt P08908)
- ASSAY_NAME: Displacement of [3H][…] from human recombinant 5-HT1A receptor expressed in HEK cells measured after 60 to 90 mins by radioligand completion assay relative to control
- Assay type: cell-based
MEASURE_NAME: Ki (nM)

structure_smiles_string=CC[C@H]1CN2CCc3c([nH]c4cccc(OC)c34)[C@@H]2C[C@@H]1/C(=C\OC)C(=O)OC study_target="5-hydroxytryptamine receptor 1A (Homo sapiens, UniProt P08908)" numeric_readout=38.5
structure_smiles_string=C=C[C@H]1CN2CCc3c([nH]c4cccc(OC)c34)[C@@H]2C[C@@H]1/C(=C\OC)C(=O)OC study_target="5-hydroxytryptamine receptor 1A (Homo sapiens, UniProt P08908)" numeric_readout=32

---

- STUDY_TARGET: 5-hydroxytryptamine receptor 2C (Homo sapiens) (UniProt P28335)
- Sequence (whole entry): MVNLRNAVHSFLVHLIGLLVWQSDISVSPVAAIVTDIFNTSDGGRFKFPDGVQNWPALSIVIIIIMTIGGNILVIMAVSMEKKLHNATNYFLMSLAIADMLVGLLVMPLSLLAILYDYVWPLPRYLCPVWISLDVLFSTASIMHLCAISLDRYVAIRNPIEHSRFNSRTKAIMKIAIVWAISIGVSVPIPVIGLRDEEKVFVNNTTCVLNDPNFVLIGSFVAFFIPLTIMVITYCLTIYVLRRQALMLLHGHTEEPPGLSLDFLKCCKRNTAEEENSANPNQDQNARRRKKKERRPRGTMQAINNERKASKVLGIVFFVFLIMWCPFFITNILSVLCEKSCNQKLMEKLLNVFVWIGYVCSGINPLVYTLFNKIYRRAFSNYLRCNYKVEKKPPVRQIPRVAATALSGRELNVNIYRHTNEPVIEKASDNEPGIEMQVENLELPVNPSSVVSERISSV
- ASSAY_NAME: Displacement of [125I](+/-)DOI from human recombinant 5-HT2C receptor expressed in CHO cells at 100 nM measured after 60 mins by radioligand completion assay relative to control
- Format: cell-based
MEASURE_NAME: Activity (%)

structure_smiles_string=CC[C@@H]1CN2CCc3c([nH]c4cccc(OC)c34)[C@H]2C[C@@H]1/C(=C\OC)C(=O)OC measure_name=Activity units=% numeric_readout=0.4
structure_smiles_string=COC(=O)C1=COC[C@H]2CN3CCc4c([nH]c5ccccc45)[C@@H]3C[C@H]12 measure_name=Activity units=% numeric_readout=-12.5
structure_smiles_string=CC[C@@H]1CN2CCc3c([nH]c4cccc(OC)c34)[C@@H]2C[C@@H]1/C(=C\OC)C(=O)OC measure_name=Activity units=% numeric_readout=-8.2
structure_smiles_string=CC[C@@H]1CN2CC[C@@]3(O)C(=Nc4cccc(OC)c43)[C@@H]2C[C@@H]1/C(=C\OC)C(=O)OC measure_name=Activity units=% numeric_readout=-18.3

---

In this section we review reported Activity values for a set of compounds.
- STUDY_TARGET: 5-hydroxytryptamine receptor 2C (Homo sapiens)
- Sequence (whole entry): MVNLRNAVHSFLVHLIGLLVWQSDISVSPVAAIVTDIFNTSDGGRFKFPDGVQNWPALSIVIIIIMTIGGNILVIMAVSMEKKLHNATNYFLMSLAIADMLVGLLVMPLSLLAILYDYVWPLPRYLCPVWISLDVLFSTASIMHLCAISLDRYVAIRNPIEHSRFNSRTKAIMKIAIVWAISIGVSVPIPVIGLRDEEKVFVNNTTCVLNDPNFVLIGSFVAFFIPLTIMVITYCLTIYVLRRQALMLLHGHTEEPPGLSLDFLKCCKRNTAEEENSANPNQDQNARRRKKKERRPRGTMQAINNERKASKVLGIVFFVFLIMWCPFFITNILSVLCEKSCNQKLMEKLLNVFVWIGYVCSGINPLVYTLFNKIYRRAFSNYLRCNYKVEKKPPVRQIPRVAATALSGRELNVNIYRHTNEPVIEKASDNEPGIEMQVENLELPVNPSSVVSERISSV
- ASSAY_NAME: Displacement of [125I](+/-)DOI from human recombinant 5-HT2C receptor expressed in CHO cells at 10 uM measured after 60 mins by radioligand completion assay relative to control
- Assay type: cell-based
MEASURE_NAME: Activity (%)

structure_smiles_string=CC[C@@H]1CN2CCc3c([nH]c4cccc(OC)c34)[C@@H]2C[C@@H]1/C(=C\OC)C(=O)OC study_target="5-hydroxytryptamine receptor 2C (Homo sapiens)" numeric_readout=14.7
structure_smiles_string=COC(=O)C1=COC[C@H]2CN3CCc4c([nH]c5ccccc45)[C@@H]3C[C@H]12 study_target="5-hydroxytryptamine receptor 2C (Homo sapiens)" numeric_readout=-5.3
structure_smiles_string=CC[C@@H]1CN2CC[C@@]3(O)C(=Nc4cccc(OC)c43)[C@@H]2C[C@@H]1/C(=C\OC)C(=O)OC study_target="5-hydroxytryptamine receptor 2C (Homo sapiens)" numeric_readout=-13.9
structure_smiles_string=CC[C@@H]1CN2CCc3c([nH]c4cccc(OC)c34)[C@H]2C[C@@H]1/C(=C\OC)C(=O)OC study_target="5-hydroxytryptamine receptor 2C (Homo sapiens)" numeric_readout=14.3

---

- STUDY_TARGET: 5-hydroxytryptamine receptor 2A (Homo sapiens, UniProt P28223)
- Sequence (P28223 whole entry): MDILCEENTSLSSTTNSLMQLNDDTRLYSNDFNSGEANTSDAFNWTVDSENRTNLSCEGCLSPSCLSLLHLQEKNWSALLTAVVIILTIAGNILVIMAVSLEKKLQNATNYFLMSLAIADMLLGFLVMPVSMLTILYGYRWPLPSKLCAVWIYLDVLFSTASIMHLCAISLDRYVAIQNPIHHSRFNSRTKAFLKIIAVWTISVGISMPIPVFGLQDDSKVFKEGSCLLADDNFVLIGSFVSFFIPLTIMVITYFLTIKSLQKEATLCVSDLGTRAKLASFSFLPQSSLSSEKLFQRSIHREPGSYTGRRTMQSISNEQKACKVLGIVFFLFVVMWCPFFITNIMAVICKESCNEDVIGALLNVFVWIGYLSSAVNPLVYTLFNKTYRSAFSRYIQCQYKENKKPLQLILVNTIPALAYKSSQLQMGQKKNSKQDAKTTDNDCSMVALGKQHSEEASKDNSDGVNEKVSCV
- ASSAY_NAME: Displacement of [3H]LSD from human recombinant 5-HT2A receptor expressed in HEK cells by radioligand completion assay relative to control
pKi: −log10 of the molar value.
MEASURE_NAME: pKi

structure_smiles_string=CC[C@H]1CN2CCc3c([nH]c4cccc(OC)c34)[C@@H]2C[C@@H]1/C(=C\OC)C(=O)OC numeric_readout=5.88
structure_smiles_string=C=C[C@H]1CN2CCc3c([nH]c4cccc(OC)c34)[C@@H]2C[C@@H]1/C(=C\OC)C(=O)OC numeric_readout=6.09
structure_smiles_string=CC[C@@H]1CN2CCc3c([nH]c4cccc(OC)c34)[C@@H]2C[C@@H]1/C(=C\OC)C(=O)OC numeric_readout=5.30

---

- STUDY_TARGET: 5-hydroxytryptamine receptor 2B (Homo sapiens, UniProt P41595)
- Sequence (P41595 whole entry): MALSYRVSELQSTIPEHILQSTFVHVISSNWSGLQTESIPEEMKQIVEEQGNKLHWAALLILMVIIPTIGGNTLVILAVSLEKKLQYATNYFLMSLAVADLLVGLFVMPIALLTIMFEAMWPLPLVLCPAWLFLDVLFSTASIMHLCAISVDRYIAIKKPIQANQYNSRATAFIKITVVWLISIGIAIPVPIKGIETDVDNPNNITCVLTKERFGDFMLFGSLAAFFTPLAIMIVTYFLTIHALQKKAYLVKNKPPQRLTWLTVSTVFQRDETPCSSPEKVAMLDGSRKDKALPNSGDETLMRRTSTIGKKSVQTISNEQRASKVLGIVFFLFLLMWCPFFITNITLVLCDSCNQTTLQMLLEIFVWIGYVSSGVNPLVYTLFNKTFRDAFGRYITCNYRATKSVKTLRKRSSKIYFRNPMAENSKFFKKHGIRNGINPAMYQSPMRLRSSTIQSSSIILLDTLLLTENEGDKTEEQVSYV
- ASSAY_NAME: Displacement of [125I](+/-)DOI from human recombinant 5-HT2B receptor expressed in CHO cells at 100 nM measured after 60 mins by radioligand completion assay relative to control
- Format: cell-based
Entries and their Activity values follow.
MEASURE_NAME: Activity (%)

structure_smiles_string=CC[C@@H]1CN2CCc3c([nH]c4cccc(OC)c34)[C@@H]2C[C@@H]1/C(=C\OC)C(=O)OC numeric_readout=23
structure_smiles_string=CC[C@@H]1CN2CC[C@@]3(O)C(=Nc4cccc(OC)c43)[C@@H]2C[C@@H]1/C(=C\OC)C(=O)OC numeric_readout=-1.4
structure_smiles_string=COC(=O)C1=COC[C@H]2CN3CCc4c([nH]c5ccccc45)[C@@H]3C[C@H]12 numeric_readout=6.2
structure_smiles_string=CC[C@@H]1CN2CCc3c([nH]c4cccc(OC)c34)[C@H]2C[C@@H]1/C(=C\OC)C(=O)OC numeric_readout=-3.4
